Source: paper PMC12858405

System: Th+ neurons of Th-GCaMP6f (WT) mice
Test: GCaMP6f Ca2+ imaging of Th+ neurons in arcuate nucleus brain slices with 355 nm photoswitching, Th-GCaMP6f (WT) mice
Settings: Mus musculus, Neuron, read-out: EC50 of Z-isomer-induced Ca2+ responses (ΔAUC) in Th+ neurons, WT
Give pEC50 for every item shown.
Keep in mind that pEC50 stands for -log10 of concentration in molar terms.

Lab book: pEC50 of Cn1c(=O)n(CCCO)c(=O)c2c1nc(Oc1ccc(N=Nc3ccccc3)c(Cl)c1)n2Cc1ccc(Cl)cc1 noted as 6.89

Lab book: pEC50 of Cn1c(=O)n(CCCO)c(=O)c2c1nc(Oc1ccc(/N=N\c3ccccc3)c(Cl)c1)n2Cc1ccc(Cl)cc1 noted as 6.89

###

Target: mouse TRPC4β (Mus musculus)
Experiment: FLIPR Ca2+ influx assay (Fluo-4) with 365/447 nm photoswitching, HEK293 stably expressing mouse TRPC4β
Details: Z* = mostly-Z PSS under 365 nm LED; Fluo-4-loaded cells; read-out: Agonistic EC50 (365 nm) TRPC4
endpoint name: EC50 (nM)
Report as a plain number; the unit nM is understood.

Lab book: EC50 of Cn1c(=O)n(CCCO)c(=O)c2c1nc(Oc1ccc(/N=N\c3ccccc3)c(OC(F)(F)F)c1)n2Cc1ccc(Cl)cc1 noted as 3

Lab book: EC50 of Cn1c(=O)n(CCCO)c(=O)c2c1nc(Oc1ccc(N=Nc3ccccc3)c(OC(F)(F)F)c1)n2Cc1ccc(Cl)cc1 noted as 3

###

Give pIC50 for every item shown.
Molecular target: EA-activated TRPC5 (Mus musculus, UniProt Q9QX29)
Construct: expressed in transfected cells; host or cells: HEK293-mTRPC5-YFP
Sequence (Q9QX29 1-975): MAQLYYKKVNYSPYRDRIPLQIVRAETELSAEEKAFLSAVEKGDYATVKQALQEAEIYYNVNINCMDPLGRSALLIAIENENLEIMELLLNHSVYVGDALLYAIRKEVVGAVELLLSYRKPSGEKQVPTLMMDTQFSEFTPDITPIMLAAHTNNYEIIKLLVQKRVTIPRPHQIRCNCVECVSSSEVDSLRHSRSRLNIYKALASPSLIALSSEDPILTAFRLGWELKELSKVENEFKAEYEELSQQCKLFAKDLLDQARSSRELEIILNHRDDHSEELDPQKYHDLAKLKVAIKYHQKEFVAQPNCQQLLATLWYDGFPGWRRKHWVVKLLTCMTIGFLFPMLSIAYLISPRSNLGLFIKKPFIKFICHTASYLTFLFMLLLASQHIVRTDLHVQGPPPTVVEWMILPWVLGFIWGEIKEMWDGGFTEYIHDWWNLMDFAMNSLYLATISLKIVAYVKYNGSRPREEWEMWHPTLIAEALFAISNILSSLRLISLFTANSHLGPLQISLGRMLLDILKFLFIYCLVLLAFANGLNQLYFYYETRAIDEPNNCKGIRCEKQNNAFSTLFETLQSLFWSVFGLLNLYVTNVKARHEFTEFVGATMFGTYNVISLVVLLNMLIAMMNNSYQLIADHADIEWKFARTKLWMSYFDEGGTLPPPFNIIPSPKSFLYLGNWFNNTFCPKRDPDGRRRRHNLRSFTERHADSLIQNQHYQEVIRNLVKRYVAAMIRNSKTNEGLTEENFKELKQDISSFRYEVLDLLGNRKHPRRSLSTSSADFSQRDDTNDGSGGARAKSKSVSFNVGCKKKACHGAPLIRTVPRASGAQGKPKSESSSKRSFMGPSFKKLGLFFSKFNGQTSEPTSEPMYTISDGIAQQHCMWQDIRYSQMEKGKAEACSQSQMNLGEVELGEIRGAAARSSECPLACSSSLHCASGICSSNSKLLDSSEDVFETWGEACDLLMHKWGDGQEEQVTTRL
Assay: FLIPR Ca2+ assay, E isomers silencing EA-activated TRPC5 (HEK293-mTRPC5-YFP)
Format: cell-based
Details: Inhibitory IC50 (versus 30 nM EA) TRPC5, E isomer, thermally relaxed; 30 nM EA
Keep in mind that pIC50 stands for -log10 of concentration in molar terms.

Lab book: pIC50 of Cn1c(=O)n(CCCO)c(=O)c2c1nc(Oc1ccc(/N=N/c3ccccc3)c(Cl)c1)n2Cc1ccc(Cl)cc1 noted as 6.83

Lab book: pIC50 of Cn1c(=O)n(CCCO)c(=O)c2c1nc(Oc1ccc(/N=N/c3ccccc3)c(OC(F)(F)F)c1)n2Cc1ccc(Cl)cc1 noted as 7.17

###

Molecular target: EA-activated TRPC4 (Mus musculus)
Construct: expressed in transfected cells; host or cells: HEK293-mTRPC4β-YFP
Sequence (Q9QUQ5 1-890 isoform Q9QUQ5-2): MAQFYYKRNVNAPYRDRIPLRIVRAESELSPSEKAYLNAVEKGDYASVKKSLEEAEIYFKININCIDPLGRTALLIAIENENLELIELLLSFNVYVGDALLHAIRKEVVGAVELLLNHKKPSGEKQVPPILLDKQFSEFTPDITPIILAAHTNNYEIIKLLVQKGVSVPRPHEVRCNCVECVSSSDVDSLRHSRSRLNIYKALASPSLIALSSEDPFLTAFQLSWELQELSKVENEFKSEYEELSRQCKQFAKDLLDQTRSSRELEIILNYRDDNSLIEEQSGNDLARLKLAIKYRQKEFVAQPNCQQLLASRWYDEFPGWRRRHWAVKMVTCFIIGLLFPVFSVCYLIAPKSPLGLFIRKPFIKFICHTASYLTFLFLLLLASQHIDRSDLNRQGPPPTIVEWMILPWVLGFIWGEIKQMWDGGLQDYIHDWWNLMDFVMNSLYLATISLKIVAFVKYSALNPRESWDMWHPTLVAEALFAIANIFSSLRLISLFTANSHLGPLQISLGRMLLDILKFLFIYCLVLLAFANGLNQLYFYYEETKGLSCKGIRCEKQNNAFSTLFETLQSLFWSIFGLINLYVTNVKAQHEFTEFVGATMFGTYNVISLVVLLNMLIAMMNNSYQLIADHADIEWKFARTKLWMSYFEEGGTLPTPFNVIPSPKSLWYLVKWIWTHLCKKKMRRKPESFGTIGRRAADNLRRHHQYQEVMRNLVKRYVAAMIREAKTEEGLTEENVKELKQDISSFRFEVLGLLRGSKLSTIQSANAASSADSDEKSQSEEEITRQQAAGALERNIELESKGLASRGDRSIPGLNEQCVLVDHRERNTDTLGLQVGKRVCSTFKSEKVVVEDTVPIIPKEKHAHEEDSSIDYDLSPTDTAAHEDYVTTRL
Assay: FLIPR Ca2+ assay, E isomers silencing EA-activated TRPC4 (HEK293-mTRPC4β-YFP)
Format: cell-based
Settings: Inhibitory IC50 (versus 50 nM EA) TRPC4, E isomer; 50 nM EA
endpoint name: pIC50
Keep in mind that pIC50 stands for -log10 of concentration in molar terms.

Response field pIC50 (EA-activated TRPC4 (Mus musculus)) for item Cn1c(=O)n(CCCO)c(=O)c2c1nc(Oc1ccc(/N=N/c3ccccc3)c(OC(F)(F)F)c1)n2Cc1ccc(Cl)cc1 : 7.07

###

Target: EA-activated TRPC4 (Mus musculus, UniProt Q9QUQ5)
Construct: expressed in transfected cells; host or cells: HEK293-mTRPC4β-YFP
Sequence (Q9QUQ5 1-890 isoform Q9QUQ5-2): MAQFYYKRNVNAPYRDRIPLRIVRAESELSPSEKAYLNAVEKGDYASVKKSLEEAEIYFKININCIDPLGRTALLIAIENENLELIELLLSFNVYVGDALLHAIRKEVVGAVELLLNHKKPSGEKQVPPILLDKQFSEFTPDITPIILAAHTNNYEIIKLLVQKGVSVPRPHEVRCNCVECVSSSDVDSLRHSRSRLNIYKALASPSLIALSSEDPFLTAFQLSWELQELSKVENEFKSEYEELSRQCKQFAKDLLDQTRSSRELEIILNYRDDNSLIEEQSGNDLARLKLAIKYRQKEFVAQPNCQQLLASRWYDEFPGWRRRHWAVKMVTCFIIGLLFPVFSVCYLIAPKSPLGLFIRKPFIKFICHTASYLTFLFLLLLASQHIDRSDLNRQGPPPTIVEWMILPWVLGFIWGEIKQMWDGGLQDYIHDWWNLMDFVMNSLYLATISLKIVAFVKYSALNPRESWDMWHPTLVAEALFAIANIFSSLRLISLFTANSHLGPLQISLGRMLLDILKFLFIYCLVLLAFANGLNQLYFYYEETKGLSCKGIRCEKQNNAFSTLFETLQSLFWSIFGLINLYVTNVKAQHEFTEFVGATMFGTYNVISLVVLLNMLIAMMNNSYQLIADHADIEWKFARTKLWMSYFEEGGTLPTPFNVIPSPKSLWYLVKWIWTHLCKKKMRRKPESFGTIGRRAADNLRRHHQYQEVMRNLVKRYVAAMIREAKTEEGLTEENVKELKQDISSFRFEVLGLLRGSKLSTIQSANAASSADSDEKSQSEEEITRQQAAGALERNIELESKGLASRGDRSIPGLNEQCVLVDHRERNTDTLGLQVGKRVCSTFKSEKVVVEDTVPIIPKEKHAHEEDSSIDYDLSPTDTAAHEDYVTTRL
Assay: FLIPR Ca2+ assay, E isomers silencing EA-activated TRPC4 (HEK293-mTRPC4β-YFP)
Assay type: cell-based
Conditions: Inhibitory IC50 (versus 30 nM EA) TRPC4, E isomer, thermally relaxed; 30 nM EA
endpoint name: IC50 (nM)
Report as a plain number; the unit nM is understood.

Lab book: IC50 of Cn1c(=O)n(CCCO)c(=O)c2c1nc(Oc1ccc(/N=N/c3ccccc3)c(OC(F)(F)F)c1)n2Cc1ccc(Cl)cc1 noted as 90

Lab book: IC50 of Cn1c(=O)n(CCCO)c(=O)c2c1nc(Oc1ccc(/N=N/c3ccccc3)c(Cl)c1)n2Cc1ccc(Cl)cc1 noted as 110
